# target: Kappa-type opioid receptor (Homo sapiens)
# test-method-notes: Agonist activity at human kappa opioid receptor expressed in CHO cell membranes after 60 mins by [35S]GTPgammaS binding assay relative to U69,593
# Assay type: functional
measured-property: Efficacy
Just the number plus its unit, please.

c1ccc(CCN(CCc2ccccc2)CC2CCC2)cc1
91.9%
Oc1ccc(CCN(CCc2cccc(O)c2)CC2CCCCC2)cc1
84.3%

Input Oc1cccc(CCN(CCc2ccccc2)Cc2ccccc2)c1 , output reported Efficacy. 79.5%

Supply recorded Efficacy for Oc1cccc(CCN(CCc2cccc(O)c2)CC2CCCC2)c1 here. 80.4%

Tell us which Efficacy value is on record for C=CCN(CCc1ccc(O)cc1)CCc1cccc(O)c1 29.8%

Check the records and state Efficacy for Oc1cccc(CCN(CCc2cccc(O)c2)CC2CCCCC2)c1 91.1%

Read the entry Cl.Oc1cccc(CCN(CCc2ccccc2)CC2CCCC2)c1 and write its reported Efficacy. 82.8%

Return the recorded Efficacy value; entry: Cl.Oc1cccc(CCN(CCc2ccccc2)CC2CCC2)c1F 66.1%

Return value of Efficacy for input Cl.Oc1cccc(CCN(CCc2ccccc2)CC2CCCCC2)c1F , no commentary. 88.9%
